These entries and their values trace back to patent US20110300138A1.

tgt: T1, thyroid stimulating hormone receptor (full length human TSHR) (human, UniProt P16473 22-764)
T1 construct: Full length TSHR coated onto plastic tubes (TSHR coated tubes, as in WO2004/050708A2); also called TSH receptor
experiment: competitor ^125I-K1-70 IgG, TSHR coated tubes; 0.03 µg/mL in HBD

>  <binder>
K1-18 Fab (Fab, V domains shown) VH: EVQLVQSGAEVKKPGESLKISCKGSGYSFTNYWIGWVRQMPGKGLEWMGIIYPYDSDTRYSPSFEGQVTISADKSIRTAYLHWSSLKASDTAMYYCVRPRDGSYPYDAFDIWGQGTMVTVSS VL: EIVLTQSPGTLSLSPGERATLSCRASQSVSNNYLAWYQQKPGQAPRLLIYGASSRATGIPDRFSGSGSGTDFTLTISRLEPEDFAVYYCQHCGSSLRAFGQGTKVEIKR

>  <unitSymbol>
%

>  <Inhibition of binding (%)>
10.2

$$$$
>  <binder>
K1-18 IgG (antibody, V domains shown, Human IgG1 kappa purified from hetero-hybridoma supernatant; it is not part of the secreted protein; also called human monoclonal TSHR autoantibody K1-18 (stimulating)) VH: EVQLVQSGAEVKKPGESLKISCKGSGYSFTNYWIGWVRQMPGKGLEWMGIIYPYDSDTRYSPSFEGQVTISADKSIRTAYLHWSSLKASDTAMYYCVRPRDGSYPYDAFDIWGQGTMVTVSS VL: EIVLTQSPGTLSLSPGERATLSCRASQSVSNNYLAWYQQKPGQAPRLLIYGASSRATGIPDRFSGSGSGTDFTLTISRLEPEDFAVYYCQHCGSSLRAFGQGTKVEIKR

>  <unitSymbol>
%

>  <Inhibition of binding (%)>
20

$$$$
>  <binder>
K1-70 IgG (antibody, V domains shown, Human IgG1 lambda purified from hetero-hybridoma supernatant) VH: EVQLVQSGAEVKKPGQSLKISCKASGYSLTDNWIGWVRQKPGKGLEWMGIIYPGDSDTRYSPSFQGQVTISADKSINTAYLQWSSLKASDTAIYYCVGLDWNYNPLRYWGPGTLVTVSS VL: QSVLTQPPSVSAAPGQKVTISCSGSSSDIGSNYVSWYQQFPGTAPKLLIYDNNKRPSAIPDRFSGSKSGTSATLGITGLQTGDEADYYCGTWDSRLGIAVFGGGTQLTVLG

>  <unitSymbol>
%

>  <Inhibition of binding (%)>
33.6

$$$$
>  <binder>
K1-70 Fab (Fab, V domains shown) VH: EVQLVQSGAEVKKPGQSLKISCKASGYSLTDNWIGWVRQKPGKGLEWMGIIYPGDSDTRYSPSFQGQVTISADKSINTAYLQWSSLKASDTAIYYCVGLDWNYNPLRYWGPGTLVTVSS VL: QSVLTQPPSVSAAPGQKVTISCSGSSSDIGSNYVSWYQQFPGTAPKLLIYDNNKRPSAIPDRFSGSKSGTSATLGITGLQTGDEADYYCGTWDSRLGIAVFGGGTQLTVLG

>  <unitSymbol>
%

>  <Inhibition of binding (%)>
49.6

$$$$
